meta.source: patent US6608061B2

System: HeLa S3 cells
Test Name: Test for growth inhibition of HeLa S3 cells
Assay type: cell-based
Test Conditions: Homo sapiens, HeLa S3, 72 h, HeLa S3 cells, 72 hours with test compound, Cell Proliferation Kit II; read-out: Cell growth inhibition (IC50)
Measured Quantity: IC50 (µM)

# annotated cases, reported IC50 shown
Molecule	Target Desc	Unit	Assay Result
Oc1ccc(SCCCCSc2ccc(O)cc2)cc1	HeLa S3 cells	µM	6.02
NC(=O)CCN(CCSc1ccc(O)cc1)CCSc1ccc(O)cc1	HeLa S3 cells	µM	1.61
Oc1ccc(SCC=CCSc2ccc(O)cc2)cc1	HeLa S3 cells	µM	6.89

a. CC1CCc2ccccc2N1C(=O)N(CCSc1ccc(O)cc1)CCSc1ccc(O)cc1 (centres unmarked)
b. CCC(=O)N(CCSc1ccc(O)cc1)CCSc1ccc(O)cc1
Hey, between a and b which has a smaller measured IC50? Respond using the label that marks the chosen record.
b
(b: 3.8 µM, a: 18.6 µM)

----------
System: HeLa S3 cells
Test Name: Test for growth inhibition of HeLa S3 cells
Format: cell-based
Test Conditions: Homo sapiens, HeLa S3, 72 h, HeLa S3 cells, 72 hours with test compound, Cell Proliferation Kit II; read-out: Cell growth inhibition (IC50)
Measured Quantity: IC50 (µM)

Smiles Repr	IC50 / µM
Oc1ccc(SCCSc2ccc(O)cc2)cc1	14.5
CCN(CC)CCN(CCSc1ccc(O)cc1)CCSc1ccc(O)cc1	38.9
Oc1ccc(SCCN(CCSc2ccc(O)cc2)CCN2CCCCC2)cc1	11.4

a. Oc1ccc(SCCCCCCSc2ccc(O)cc2)cc1
b. C#CCN(CCSc1ccc(O)cc1)CCSc1ccc(O)cc1
# returns the entry with the larger IC50; inputs a and b Respond using the label that marks the chosen record.
a

----------
Target Desc: human RNR (purified R1 and R2 subunits) (Homo sapiens, UniProt P23921+P31350)
Test Name: In vitro measurement of human RNR inhibitory activity (conversion of CDP to dCDP, HPLC)
Test Conditions: 100 μM CDP, 37° C., 30 minutes, read-out: RNR Inhibition (IC50)
Measured Quantity: IC50 (nM)

Molecule	IC50 (nM)
CCN(CCSc1ccc(O)cc1)CCSc1ccc(O)cc1 [Compound 71]	1230
Oc1ccc(SCCOCCOCCOCCOCCOCCSc2ccc(O)cc2)cc1 [Compound 173]	3630
OCCOCCN(CCSc1ccc(O)cc1)CCSc1ccc(O)cc1 [Compound 199]	3990
Oc1ccc(SCCN(CCSc2ccc(O)cc2)Cc2ccncc2)cc1 [Compound 91]	1690
Oc1ccc(CN(CCSc2ccc(O)cc2)CCSc2ccc(O)cc2)cc1 [Compound 94]	460
NC(=O)[C@H]1OC(N(CCSc2ccc(O)cc2)CCSc2ccc(O)cc2)[C@H](O)[C@@H](O)[C@@H]1O (stereo partly drawn) [Compound 219]	3510
O=C(CN(CCSc1ccc(O)cc1)CCSc1ccc(O)cc1)Nc1nccs1 [Compound 210]	5910
Oc1ccc(SCCN(CCSc2ccc(O)cc2)Cc2cccs2)cc1 [Compound 89]	1460

a. Oc1ccc(SCCN(CCSc2ccc(O)cc2)Cc2ccc3ccccc3n2)cc1 [Compound 101]
b. Oc1ccc(SCCN(CCSc2ccc(O)cc2)Cc2ccccc2)cc1 [Compound 98]
c. O=C(N1CCCCC1)N(CCSc1ccc(O)cc1)CCSc1ccc(O)cc1 [Compound 125]
d. COCCCN(CCSc1ccc(O)cc1)CCSc1ccc(O)cc1 [Compound 103]
I would appreciate it if you could sort these 4 molecules by IC50, starting from the smallest number. List each label, following the requested order.
c, d, b, a

----------
Tested on: HeLa S3 cells
Test Name: Test for growth inhibition of HeLa S3 cells
Format: cell-based
Test Conditions: Homo sapiens, HeLa S3, 72 h, HeLa S3 cells, 72 hours with test compound, Cell Proliferation Kit II; read-out: Cell growth inhibition (IC50)
pIC50: −log10 of the molar value.
Measured Quantity: pIC50

# annotated cases, reported pIC50 shown
Molecule	pIC50
O=C(CN(CCSc1ccc(O)cc1)CCSc1ccc(O)cc1)NC(CO)CO [Compound 205]	5.14
CCCN(CCSc1ccc(O)cc1)CCSc1ccc(O)cc1 [Compound 72]	5.66
Oc1ccc(SCCN(CCSc2ccc(O)cc2)CCC2OCCCO2)cc1 [Compound 194]	4.93
Oc1ccc(SCSc2ccc(O)cc2)cc1 [Compound 132]	4.34
N#CCN(CCSc1ccc(O)cc1)CCSc1ccc(O)cc1 [Compound 77]	5.62

I. OC[C@H]1OC(N(CCSc2ccc(O)cc2)CCSc2ccc(O)cc2)[C@H](O)[C@@H](O)[C@@H]1O (stereo partly shown) [Compound 215]
II. Oc1ccc(SCCN(CCSc2ccc(O)cc2)Cc2ccccn2)cc1 [Compound 100]
III. COCC(=O)Oc1ccc(SCCN(CCSc2ccc(OC(=O)COC)cc2)CC(N)=O)cc1 [Compound 220]
IV. O=C(CCN(CCSc1ccc(O)cc1)CCSc1ccc(O)cc1)N1CCOCC1 [Compound 107]
I would appreciate it if you could sort these 4 molecules by pIC50, starting from the smallest number. List each label, following the requested order.
IV, I, II, III

----------
Target Desc: human RNR (purified R1 and R2 subunits) (Homo sapiens, UniProt P23921+P31350)
Sequence (P23921 1-792): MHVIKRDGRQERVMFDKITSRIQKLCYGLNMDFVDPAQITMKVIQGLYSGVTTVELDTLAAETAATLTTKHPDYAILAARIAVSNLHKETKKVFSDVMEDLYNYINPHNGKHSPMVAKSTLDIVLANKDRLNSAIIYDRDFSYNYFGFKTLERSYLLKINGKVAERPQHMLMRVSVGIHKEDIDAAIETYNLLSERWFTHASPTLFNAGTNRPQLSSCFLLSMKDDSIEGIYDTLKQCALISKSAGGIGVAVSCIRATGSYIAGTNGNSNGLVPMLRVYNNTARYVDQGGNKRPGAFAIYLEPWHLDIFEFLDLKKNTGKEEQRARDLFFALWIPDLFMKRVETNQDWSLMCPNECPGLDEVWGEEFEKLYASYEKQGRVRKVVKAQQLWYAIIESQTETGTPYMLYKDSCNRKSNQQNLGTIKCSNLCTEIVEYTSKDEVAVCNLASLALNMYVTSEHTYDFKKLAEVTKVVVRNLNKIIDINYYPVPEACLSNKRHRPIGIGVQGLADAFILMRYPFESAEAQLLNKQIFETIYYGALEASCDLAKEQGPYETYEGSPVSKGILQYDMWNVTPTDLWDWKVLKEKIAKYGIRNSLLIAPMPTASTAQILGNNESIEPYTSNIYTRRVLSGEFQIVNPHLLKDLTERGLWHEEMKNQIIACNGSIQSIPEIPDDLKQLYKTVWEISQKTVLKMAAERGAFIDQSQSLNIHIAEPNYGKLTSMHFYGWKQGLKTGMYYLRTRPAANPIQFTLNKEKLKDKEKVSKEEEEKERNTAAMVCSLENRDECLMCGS
Sequence (P31350 1-389): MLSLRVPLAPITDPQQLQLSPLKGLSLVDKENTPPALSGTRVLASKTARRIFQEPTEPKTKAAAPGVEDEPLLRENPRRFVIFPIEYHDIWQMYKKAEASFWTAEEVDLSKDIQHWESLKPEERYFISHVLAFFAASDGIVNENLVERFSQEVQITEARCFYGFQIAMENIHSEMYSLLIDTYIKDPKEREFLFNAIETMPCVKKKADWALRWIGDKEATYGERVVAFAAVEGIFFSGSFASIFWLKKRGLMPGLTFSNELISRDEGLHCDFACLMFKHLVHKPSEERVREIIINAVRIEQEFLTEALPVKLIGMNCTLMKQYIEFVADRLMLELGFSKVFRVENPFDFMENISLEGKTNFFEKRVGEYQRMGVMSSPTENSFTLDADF
Test Name: In vitro measurement of human RNR inhibitory activity (conversion of CDP to dCDP, HPLC)
Test Conditions: 100 μM CDP, 37° C., 30 minutes, read-out: RNR Inhibition (IC50)
Measured Quantity: IC50 (µM)

Compound	Target Desc	Assay Result
Oc1ccc(SCCN(CCSc2ccc(O)cc2)Cc2ccc(F)cc2)cc1 [Compound 106]	human RNR (purified R1 and R2 subunits) (Homo sapiens, UniProt P23921+P31350)	4.64
CC1(C)OCC(CN(CCSc2ccc(O)cc2)CCSc2ccc(O)cc2)O1 (centres unmarked) [Compound 200]	human RNR (purified R1 and R2 subunits) (Homo sapiens, UniProt P23921+P31350)	4.2

1. Oc1ccc(SCCOCCSc2ccc(O)c(F)c2)cc1F [Compound 190]
2. Oc1ccc(SCc2cccc(CSc3ccc(O)cc3)n2)cc1 [Compound 1]
3. OC[C@H]1OC(N(CCSc2ccc(O)cc2)CCSc2ccc(O)cc2)[C@@H](O)[C@@H](O)[C@@H]1O (some centres unmarked) [Compound 214]
Sort by IC50, descending. List each label, following the requested order.
2, 3, 1
(2: 4.26 µM, 3: 2.69 µM, 1: 1.38 µM)
